Values compiled from patent US20150225404A1.

Biological target: human mGluR5 (Homo sapiens, UniProt P41594)
Sequence (P41594 21-1212): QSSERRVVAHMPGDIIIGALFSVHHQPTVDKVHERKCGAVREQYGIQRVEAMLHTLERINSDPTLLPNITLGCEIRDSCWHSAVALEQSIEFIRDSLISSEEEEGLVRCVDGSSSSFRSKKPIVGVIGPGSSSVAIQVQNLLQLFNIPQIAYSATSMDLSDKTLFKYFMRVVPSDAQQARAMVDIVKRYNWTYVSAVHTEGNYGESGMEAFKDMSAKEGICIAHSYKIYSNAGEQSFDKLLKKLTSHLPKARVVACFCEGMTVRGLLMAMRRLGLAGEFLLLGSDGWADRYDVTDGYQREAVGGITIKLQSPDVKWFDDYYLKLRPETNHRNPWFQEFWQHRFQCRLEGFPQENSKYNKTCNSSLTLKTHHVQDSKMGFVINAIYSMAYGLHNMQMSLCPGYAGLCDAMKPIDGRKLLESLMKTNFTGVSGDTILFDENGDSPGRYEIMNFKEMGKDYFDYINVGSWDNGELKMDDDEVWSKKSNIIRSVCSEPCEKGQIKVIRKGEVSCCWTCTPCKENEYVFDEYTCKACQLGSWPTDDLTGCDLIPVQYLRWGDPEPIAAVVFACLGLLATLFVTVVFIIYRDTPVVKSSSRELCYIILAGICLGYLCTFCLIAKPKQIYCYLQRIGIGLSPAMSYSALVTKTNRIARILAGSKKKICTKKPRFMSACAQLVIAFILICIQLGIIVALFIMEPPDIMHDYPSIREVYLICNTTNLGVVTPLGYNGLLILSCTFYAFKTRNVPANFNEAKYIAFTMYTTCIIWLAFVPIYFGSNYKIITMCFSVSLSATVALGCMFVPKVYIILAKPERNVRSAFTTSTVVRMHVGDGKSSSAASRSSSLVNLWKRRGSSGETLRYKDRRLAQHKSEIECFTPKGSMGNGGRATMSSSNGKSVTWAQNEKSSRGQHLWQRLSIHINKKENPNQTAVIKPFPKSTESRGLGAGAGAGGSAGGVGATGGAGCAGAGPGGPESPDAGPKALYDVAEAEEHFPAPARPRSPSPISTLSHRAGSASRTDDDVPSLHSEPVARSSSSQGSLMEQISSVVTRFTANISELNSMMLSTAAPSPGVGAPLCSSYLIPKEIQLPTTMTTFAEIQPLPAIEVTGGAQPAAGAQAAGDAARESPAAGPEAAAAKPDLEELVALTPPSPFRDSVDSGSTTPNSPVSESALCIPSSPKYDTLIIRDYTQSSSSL
Test: Experiment for receptor function of mGluR5 (Ca2+-dependent fluorescence, FLIPR, CHO-K1 cells stably expressing human mGluR5)
Settings: L-glutamic acid 10 μM, Fluo-4 fluorescence
pIC50: −log10 of the molar value. Counter-ions that a name gives are not always drawn.
parameter: pIC50

N#Cc1cccc(COc2cc(-c3cncnc3)c3c(n2)CCCC3)c1: 6.97
Cc1cccc(COc2cc(-c3cncnc3)c3c(n2)CCC3)n1: 6.98
Cc1ncc(-c2cc(OCc3ncccc3F)nc3c2CCCC3)cn1: 7.44

a: Cc1cccnc1COc1cc(-c2cncnc2)c2c(n1)CCCC2
b: CC1CCc2c(-c3cncnc3)cc(OCc3ccccn3)nc21 (centres unmarked)
I'd appreciate it if you could identify which of a and b has the greater pIC50. Let me know the label of the one you choose.
b
(b: 7.64, a: 6.50)

I: OCc1cncc(-c2cc(OCc3ccc(F)cn3)nc3c2CCC3)n1
II: Cc1ncc(-c2cc(OCc3cccc(F)n3)nc3c2CCC3)cn1
Of I and II , whose reported pIC50 is the larger number? Indicate your choice by writing its label.
I
(I: 7.17, II: 6.91)

a: N#Cc1cc(COc2cc(-c3cncnc3)c3c(n2)CCCC3)ccn1
b: N#Cc1cccc(COc2cc(-c3cncc(CO)n3)c3c(n2)CCC3)n1
c: Nc1ncc(-c2cc(OCc3ccccn3)nc3c2CCC3)cn1 [Example 259, hydrochloride]
d: N#Cc1ccc(-c2cc(OCc3ccccn3)nc3c2CCC3)cc1F
# rank by pIC50, ascending (min first) # output: labels, in the requested order
b, d, a, c

a: Fc1ccc(COc2cc(-c3cncnc3)c3c(n2)CCCC3)nc1
b: Cc1ncc(-c2cc(OCc3cccc(F)n3)nc3c2CCCC3)cn1
c: N#Cc1ccc(COc2cc(-c3cncc(CO)n3)c3c(n2)CCCC3)nc1
d: COCc1cccc(COc2cc(-c3cccnc3)c3c(n2)CCCC3)n1
e: N#Cc1ccnc(COc2cc(-c3cncnc3)c3c(n2)CCCC3)c1
// sort entries: pIC50, high to low Could you list the labels in the order requested?
b, d, a, c, e
(b: 7.59, d: 7.38, a: 7.13, c: 6.92, e: 6.36)

I: Fc1cccc(-c2cc(OCc3ccccn3)nc3c2CCC3)c1
II: Fc1ccc(-c2cc(OCc3ccccn3)nc3c2CCCC3)cn1 [Example 101, dihydrochloride]
# query: argmin of pIC50 over I and II Your answer should be the label of the entry you select.
I

A: CCC1CCc2c(-c3cncnc3)cc(OCc3ccccn3)nc21 (centres unmarked)
B: N#Cc1ccc(-c2cc(OCc3ncc(F)cc3F)nc3c2CCC3)cn1
Consider A and B . Which of these has its pIC50 at a higher number? State the label of the item chosen.
A

P: Cc1ncc(-c2cc(OCc3ccccn3)nc3c2CCC3)cn1 [Example 36, hydrochloride]
Q: N#Cc1cncc(-c2cc(OCc3ccccn3)nc3c2CCC3)n1 [Example 54, hydrochloride]
Which of the two gives a bigger number for pIC50: P or Q ? In your reply, give the label of the chosen option.
Q
(Q: 7.70, P: 7.15)

* * *

Target: human mGluR5 (Homo sapiens)
Experiment: Experiment for receptor function of mGluR5 (Ca2+-dependent fluorescence, FLIPR, CHO-K1 cells stably expressing human mGluR5)
Details: L-glutamic acid 10 μM, Fluo-4 fluorescence
pIC50: −log10 of the molar value. Structures can show the parent of a compound that is named as a salt.
parameter: pIC50

The cases that follow already have their pIC50 on record.
OCc1cncc(-c2cc(OCc3cccc(F)c3)nc3c2CCC3)c1: 7.28
Cc1ncc(-c2cc(OCc3ncccc3F)nc3c2CCC3)cn1: 7.52
Fc1ncc(-c2cc(OCc3ccccn3)nc3c2CCCC3)cn1 [Example 167, hydrochloride]: 7.69

1: c1ccc(COc2cc(-c3cncs3)c3c(n2)CCCC3)nc1
2: OCc1cncc(-c2cc(OCc3ccc(F)cc3)nc3c2CCC3)c1
3: Fc1cccc(COc2cc(-c3cccnc3)c3c(n2)CCCC3)n1
4: N#Cc1cccc(COc2cc(-c3cncc(CO)n3)c3c(n2)CCC3)c1
5: N#Cc1nccnc1-c1cc(OCc2ccccn2)nc2c1CCCC2 [Example 198, hydrochloride]
Which order do these items take when sorted by rising pIC50? List them. Please list each label once, in the requested order.
4, 2, 5, 1, 3
(4: 6.73, 2: 7.02, 5: 7.25, 1: 7.59, 3: 7.82)

A: COCc1ncc(-c2cc(OCc3ccccn3)nc3c2CCCC3)s1
B: Oc1cc(F)cc(-c2cc(OCc3ccccn3)nc3c2CCC3)c1
C: Fc1nccnc1-c1cc(OCc2ccccn2)nc2c1CCCC2 [Example 200, hydrochloride]
Order the records by pIC50, with each subsequent value no larger than the one before. // respond by listing labels in the order requested
A, B, C

* * *

Target: human mGluR5 (Homo sapiens)
Assay: Experiment for receptor function of mGluR5 (Ca2+-dependent fluorescence, FLIPR, CHO-K1 cells stably expressing human mGluR5)
Settings: L-glutamic acid 10 μM, Fluo-4 fluorescence
pIC50: −log10 of the molar value. Where a name gives a salt, the structure may show the parent alone.
parameter: pIC50

N#Cc1ccc(-c2cc(OCc3ccccn3)nc3c2CCCC3)cn1 [Example 104, hydrochloride]: 7.29
Cc1cc(COc2cc(-c3cnc(C)nc3)c3c(n2)CCCC3)ccn1: 7.02
CS(=O)(=O)Oc1cc(F)cc(-c2cc(OCc3ccccn3)nc3c2CCC3)c1: 7.03
Cc1ncc(-c2cc(OCc3ccc(F)cn3)nc3c2CCC3)cn1 [Example 40, hydrochloride]: 7.11

* * *

Molecular target: human mGluR5 (Homo sapiens)
Assay: Experiment for receptor function of mGluR5 (Ca2+-dependent fluorescence, FLIPR, CHO-K1 cells stably expressing human mGluR5)
Conditions: L-glutamic acid 10 μM, Fluo-4 fluorescence
pIC50: −log10 of the molar value. Counter-ions that a name gives are not always drawn.
parameter: pIC50

N#Cc1ncc(-c2cc(OCc3ccccn3)nc3c2CCCC3)cn1 [Example 173, hydrochloride]: 6.79
N#Cc1ncc(-c2cc(OCc3ncccc3F)nc3c2CCC3)cn1: 6.75
Nc1ncc(-c2cc(OCc3ccccn3)nc3c2CCCC3)cn1: 7.86

a: c1ccc(COc2cc(-c3cncnc3)c3c(n2)CCCCC3)nc1 [Example 233, hydrochloride]
b: COCc1cccc(COc2cc(-c3cncnc3)c3c(n2)CCCC3)n1 [Example 160, hydrochloride]
c: CNc1cccc(COc2cc(-c3cncnc3)c3c(n2)CCCC3)n1
Rank by pIC50 (largest to smallest). List the labels in the requested order.
a, b, c
